Experiment: Oral bioavailability in Sprague-Dawley rat
Assay type: ADME, organism-based
Conditions: in vivo
quantity.name: bioavailability (%)
# output: bare number, implied unit %

The molecule listed as N#Cc1ccc(NC(=O)N2CCc3cccnc3[C@H]2c2ccc(C(F)(F)F)cc2)cc1 has a reported bioavailability of 70

----------
Assay: Oral bioavailability in Sprague-Dawley rat at 5 mg/kg by LC-MS/MS analysis
Assay type: ADME, organism-based
Details: in vivo
quantity.name: bioavailability (%)
# output: bare number, implied unit %

The molecule listed as C[C@H](NC(=O)N1CCc2cccnc2[C@H]1c1ccc(C(F)(F)F)c(F)c1)C(F)(F)F has a reported bioavailability of 51

The molecule listed as C[C@H](NC(=O)N1CCc2ccccc2[C@H]1c1ccc(C(F)(F)F)c(F)c1)C(F)(F)F has a reported bioavailability of 67
